Assay: in vitro
Conditions: rat, liver microsomes
quantity name: microsomal CLint

Input line: Using the record for O=c1[nH]c2c(N3CCN(CCc4c[nH]c5ccc(Cl)cc45)CC3)cccc2n1Cc1ccccc1 , report its microsomal CLint.
Output line: < 116 µL/min/mg

---

Target: Voltage-gated inwardly rectifying potassium channel KCNH2 (Homo sapiens, UniProt Q12809)
Sequence (Q12809 whole entry): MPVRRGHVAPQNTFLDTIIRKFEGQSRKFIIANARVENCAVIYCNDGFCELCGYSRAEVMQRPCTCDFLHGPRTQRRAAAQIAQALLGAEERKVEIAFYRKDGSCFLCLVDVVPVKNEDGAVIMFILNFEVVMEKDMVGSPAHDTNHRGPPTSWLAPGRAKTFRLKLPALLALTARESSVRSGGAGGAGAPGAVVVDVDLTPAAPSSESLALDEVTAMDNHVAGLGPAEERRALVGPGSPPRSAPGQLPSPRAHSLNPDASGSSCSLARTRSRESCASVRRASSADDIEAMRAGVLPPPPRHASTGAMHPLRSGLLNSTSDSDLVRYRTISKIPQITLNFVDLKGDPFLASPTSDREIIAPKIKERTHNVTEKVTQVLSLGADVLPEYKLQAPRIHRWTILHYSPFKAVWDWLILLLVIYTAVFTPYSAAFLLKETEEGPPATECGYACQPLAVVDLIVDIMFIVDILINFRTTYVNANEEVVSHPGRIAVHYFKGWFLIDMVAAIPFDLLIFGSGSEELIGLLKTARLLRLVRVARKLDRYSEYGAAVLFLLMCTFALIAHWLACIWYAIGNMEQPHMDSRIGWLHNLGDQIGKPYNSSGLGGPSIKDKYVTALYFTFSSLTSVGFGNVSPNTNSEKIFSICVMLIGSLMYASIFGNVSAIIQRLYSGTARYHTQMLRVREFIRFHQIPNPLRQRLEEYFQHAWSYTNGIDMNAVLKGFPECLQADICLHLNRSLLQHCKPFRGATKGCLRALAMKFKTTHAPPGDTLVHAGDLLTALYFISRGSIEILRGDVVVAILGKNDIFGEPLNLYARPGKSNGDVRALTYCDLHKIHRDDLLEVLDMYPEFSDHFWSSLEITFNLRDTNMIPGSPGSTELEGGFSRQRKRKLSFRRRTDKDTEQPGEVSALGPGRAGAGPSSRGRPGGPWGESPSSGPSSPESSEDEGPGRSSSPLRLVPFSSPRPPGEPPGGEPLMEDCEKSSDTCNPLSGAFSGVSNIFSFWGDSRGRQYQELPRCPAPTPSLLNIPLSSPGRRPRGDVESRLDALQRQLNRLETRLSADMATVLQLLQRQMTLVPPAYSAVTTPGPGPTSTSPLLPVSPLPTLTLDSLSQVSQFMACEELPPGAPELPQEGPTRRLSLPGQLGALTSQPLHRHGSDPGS
Test: Inhibition of hERG expressed in CHO cells measured for 30 mins by electrophysiological automated patch clamp assay
quantity name: log10(IC50) (log10 of the value in nM)
Remember, log10 of IC50, in nM.

Would you please look over these solved cases?
{"input smiles": "N#Cc1ccc2[nH]cc(CCN3CCN(c4cccc5c4[nH]c(=O)n5Cc4ccccc4)CC3)c2c1", "measurement target": "Voltage-gated inwardly rectifying potassium channel KCNH2 (Homo sapiens, UniProt Q12809)", "log10(IC50)": 3.23}
{"input smiles": "O=c1[nH]c2c(N3CCN(CCCc4c[nH]c5ccc(F)cc45)CC3)cccc2n1Cc1ccccc1", "measurement target": "Voltage-gated inwardly rectifying potassium channel KCNH2 (Homo sapiens, UniProt Q12809)", "log10(IC50)": 3.40}
{"input smiles": "N#Cc1ccc2[nH]cc(CCCCN3CCC(c4cccc5c(S(=O)(=O)c6ccccc6)c[nH]c45)CC3)c2c1", "measurement target": "Voltage-gated inwardly rectifying potassium channel KCNH2 (Homo sapiens, UniProt Q12809)", "log10(IC50)": 3.66}
{"input smiles": "O=S(=O)(c1ccccc1)n1ccc2c(N3CCN(CCc4c[nH]c5ccc(F)cc45)CC3)cccc21", "measurement target": "Voltage-gated inwardly rectifying potassium channel KCNH2 (Homo sapiens, UniProt Q12809)", "log10(IC50)": 3.11}
{"input smiles": "N#Cc1ccc2[nH]cc(CCCN3CCC(c4cccc5c(S(=O)(=O)c6ccccc6)c[nH]c45)CC3)c2c1", "measurement target": "Voltage-gated inwardly rectifying potassium channel KCNH2 (Homo sapiens, UniProt Q12809)", "log10(IC50)": 4.45}
{"input smiles": "O=c1[nH]c2c(N3CCN(CCc4c[nH]c5ccc(Cl)cc45)CC3)cccc2n1Cc1ccccc1", "measurement target": "Voltage-gated inwardly rectifying potassium channel KCNH2 (Homo sapiens, UniProt Q12809)", "log10(IC50)": 3.60}

Input line: Using the record for N#Cc1ccc2[nH]cc(CCN3CCC(c4cccc5c(S(=O)(=O)c6ccccc6)c[nH]c45)CC3)c2c1 , report its log10(IC50).
Output line: 3.04

Input line: Using the record for O=S(=O)(c1ccccc1)n1ccc2c(N3CCN(CCCc4c[nH]c5ccc(F)cc45)CC3)cccc21 , report its log10(IC50).
Output line: 3.46

---

Experiment: in vitro
Details: human, HepG2 cells
Description: Hepatotoxicity in human HepG2 cells incubated for 24 hrs by PrestoBlue reagent based assay
quantity name: IC50 at 24 h (µM)
Provide the reading as a plain figure in µM.

Input line: Using the record for O=c1[nH]c2c(N3CCN(CCc4c[nH]c5ccc(Cl)cc45)CC3)cccc2n1Cc1ccccc1 , report its IC50 at 24 h.
Output line: 23

---

Assay: in vitro
Details: mouse, HT-22 cells
Description: Neurotoxicity in mouse HT-22 cells incubated for 24 hrs by PrestoBlue reagent based assay
quantity name: IC50 at 24 h (µM)
Provide the reading as a plain figure in µM.

Input line: Using the record for O=c1[nH]c2c(N3CCN(CCc4c[nH]c5ccc(Cl)cc45)CC3)cccc2n1Cc1ccccc1 , report its IC50 at 24 h.
Output line: 47

---

Experiment: in vitro
Conditions: rat, liver microsomes
quantity name: half-life

Input line: Using the record for O=c1[nH]c2c(N3CCN(CCc4c[nH]c5ccc(Cl)cc45)CC3)cccc2n1Cc1ccccc1 , report its half-life.
Output line: > 1 h
